So I've got a bunch of molecules here, and I need their EC50 values.
Target: human GPR40 (Homo sapiens)
Sequence (O14842 whole entry): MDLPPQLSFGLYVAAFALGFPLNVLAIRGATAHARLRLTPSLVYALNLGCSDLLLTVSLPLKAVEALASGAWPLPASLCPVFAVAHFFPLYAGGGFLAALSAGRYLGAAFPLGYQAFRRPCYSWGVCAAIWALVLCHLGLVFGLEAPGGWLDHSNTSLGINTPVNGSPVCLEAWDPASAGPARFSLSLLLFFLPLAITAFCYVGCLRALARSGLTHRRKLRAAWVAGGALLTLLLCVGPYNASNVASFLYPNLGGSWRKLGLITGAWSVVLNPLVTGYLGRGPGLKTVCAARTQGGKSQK
Test: GPR40 calcium flux assay, human GPR40
Details: HEK293 cells stably expressing GPR40; table does not say human or rat
Description: Compounds were tested in a calcium flux assay using transfected HEK293 cells stably expressing either human GPR40 or rat GPR40. […] On the day of the experiment, the culture media was replaced with assay buffer (HBSS, 20 mM HEPES, 0.1% BSA) and the cells incubated at 37° C. for 1 h. […] The cell plate and a plate of diluted compounds of Formula (I) were loaded into a fluorescent plate reader that added compounds onto the cells while measuring the fluorescence intensity of each well. […]

Query: EC50; subject: CCC1CCC(COc2ccc(CCC(=O)O)c(C)c2C)=C(c2ccc(Cl)cc2)C1 (stereo not drawn) [Compound 522]
> 5000 nM

Query: EC50; subject: CCCCC1=C(COc2ccc(CCC(=O)O)c(Cl)c2)CCCC1 [Compound 583]
294 nM

Query: EC50; subject: Cc1ccc(C2=C(COc3ccc(CCC(=O)O)c(C(F)(F)F)c3)CCC2)c(C)c1 [Compound 247]
388 nM

Query: EC50; subject: Cc1cc(OCC2=C(C3CCCC3)CCC2)ccc1CCC(=O)O [Compound 422]
48 nM

Query: EC50; subject: Cc1c(CCC(=O)O)ccc(OCC2=C(c3ccccn3)CCCC2)c1C [Compound 490]
> 5000 nM

Query: EC50; subject: O=C(O)CCc1ccc(OCC2=C(C3CCC(F)(F)CC3)CCC2)cc1C(F)(F)F [Compound 416]
94 nM

Query: EC50; subject: O=C(O)CCc1ccc(OCC2=C(C3CCCC3)CCCCC2)cc1 [Compound 614]
560 nM

Query: EC50; subject: [2H]C(C(=O)O)C([2H])c1ccc(OCC2=C(c3ccc(Cl)cc3)CCC2)c(C)c1 (stereo not drawn) [Compound 126-D]
> 5000 nM

Query: EC50; subject: CCOc1ccc(C2=C(COc3c(F)cc(CCC(=O)O)cc3F)CCC2)cn1 [Compound 226]
> 5000 nM

Query: EC50; subject: O=C(O)CCc1ccc(OCC2=C(c3ccc(Cl)cc3)CCC2)cc1 [Compound 107]
> 5000 nM

Query: EC50; subject: Cc1ccc(C2=C(COc3ccc(CCC(=O)O)c(C(F)(F)F)c3)CC(F)(F)C2)cc1 [Compound 249]
463 nM

Query: EC50; subject: CCC1CCCC(COc2ccc(CCC(=O)O)c(C)c2C)=C1c1ccc(Cl)cc1 (stereo not drawn) [Compound 478]
> 5000 nM

Query: EC50; subject: Cc1ccc(C2=C(COc3ccc(CCC(=O)O)c(C)c3C)CCC2)cc1N [Compound 134]
> 5000 nM

Query: EC50; subject: Cc1c(CCC(=O)O)ccc(OCC2=C(c3ccc(Cl)cc3Cl)CCC2)c1C [Compound 133]
> 5000 nM

Query: EC50; subject: Cc1c(CCC(=O)O)ccc(OCC2=C(c3ccc(Cl)c(Cl)c3)CCC2)c1C [Compound 66]
> 5000 nM

Query: EC50; subject: O=C(O)CCc1ccc(OCC2=C(c3ccc(C(F)(F)F)cc3)CCC2)cc1C(F)(F)F [Compound 300]
197 nM

Query: EC50; subject: Cc1ccc(C2=C(COc3c(F)cc(CCC(=O)O)cc3F)CCC2)o1 [Compound 212]
> 5000 nM

Query: EC50; subject: O=C(O)CCc1ccc(OCC2=C(c3ccc(Cl)cc3)CCC2)cc1 [Compound 153]
2950 nM
